Each recorded value in this set is attributed to ChEMBL document CHEMBL4513216.

Listed here are molecules together with their documented cytotoxicity at 10 µM.
test: Toxicity liver stage against HepG2, at 10uM; format: cell-based; design: test concentration 10 uM, cell line HepG2-A16-CD81EGFP; conditions: human, HepG2-A16-CD81EGFP cells; read-out: INHIBITION

[
  {
    "molecule": "CS(=O)(=O)CCCNc1cccc(COC2CCCCC2)c1",
    "cytotoxicity at 10 µM [%]": 9.5
  },
  {
    "molecule": "N[C@@H]1CCC[C@@H](Oc2ccc(F)cc2Oc2cccc(F)c2)[C@@H]1O",
    "cytotoxicity at 10 µM [%]": -22.2
  },
  {
    "molecule": "CC(C)OCc1ncn2c1CN(Cc1cccs1)CCC2",
    "cytotoxicity at 10 µM [%]": 8.44
  },
  {
    "molecule": "O=C(Cn1c(=O)oc2ccccc21)N1Cc2cnn(CCO)c2C1",
    "cytotoxicity at 10 µM [%]": 0.154
  },
  {
    "molecule": "Cc1ccc(C)c(C(NC2CCCC2)c2cccnc2)c1 (stereo not drawn)",
    "cytotoxicity at 10 µM [%]": 23.5
  },
  {
    "molecule": "O=S(=O)(NCCNc1ccc(-n2cccc2)nn1)c1ccccc1",
    "cytotoxicity at 10 µM [%]": -0.426
  },
  {
    "molecule": "N[C@@H]1CCC[C@@H](Oc2ccc(F)cc2Oc2ccccc2)[C@@H]1O",
    "cytotoxicity at 10 µM [%]": -7.39
  },
  {
    "molecule": "COCC1CCN(Cc2cc(O)c3c(C)ccc(C)c3n2)CC1",
    "cytotoxicity at 10 µM [%]": -6.09
  },
  {
    "molecule": "O=C(c1scc2c1OCCO2)N1CCC(Cc2cccc(CO)c2)C1 (stereo not drawn)",
    "cytotoxicity at 10 µM [%]": 6.01
  },
  {
    "molecule": "O=C1CCC2(CCOC2)CN1Cc1nc2ccc(Cl)cc2[nH]1 (stereo not drawn)",
    "cytotoxicity at 10 µM [%]": 1.9
  },
  {
    "molecule": "O=C(N1CCCO1)[C@@]12CCO[C@@H]1CCN(C1CCCCC1)C2",
    "cytotoxicity at 10 µM [%]": -5.23
  },
  {
    "molecule": "O=C1N[C@@H]2CCN(C(=O)C3CC3)[C@@H]2C(=O)N1c1ccc(F)cc1",
    "cytotoxicity at 10 µM [%]": -1.8
  },
  {
    "molecule": "CC(C)Cc1cc(NC(=O)c2ccc[nH]2)n(C)n1",
    "cytotoxicity at 10 µM [%]": -6.56
  },
  {
    "molecule": "O=S(=O)(c1cccs1)N1Cc2nc(CN3CCCC3)oc2C1",
    "cytotoxicity at 10 µM [%]": -118
  },
  {
    "molecule": "CC(=O)Nc1ccc(CNCC(O)c2ccc(Cl)cc2)cc1 (stereo not drawn)",
    "cytotoxicity at 10 µM [%]": -8.74
  },
  {
    "molecule": "CC(CNC(=O)c1ccccc1Oc1cccnc1)N(C)C (stereo not drawn)",
    "cytotoxicity at 10 µM [%]": -9.29
  },
  {
    "molecule": "CC(C)CNC(=O)c1cn(-c2ccccn2)c(=O)c2ccccc12",
    "cytotoxicity at 10 µM [%]": 0.318
  },
  {
    "molecule": "CN(CCc1ncnn1C1Cc2ccccc2C1)C1CCS(=O)(=O)C1 (stereo not drawn)",
    "cytotoxicity at 10 µM [%]": -3.54
  },
  {
    "molecule": "CCc1c(C)nc2cc(-c3nccn3C)nn2c1N1CCCC(CO)C1 (stereo not drawn)",
    "cytotoxicity at 10 µM [%]": 3.06
  },
  {
    "molecule": "O=C(c1cccnc1)N1CCc2ncnc(N3CCOCC3)c2CC1",
    "cytotoxicity at 10 µM [%]": -79.3
  },
  {
    "molecule": "CCOc1ccc(CC(=O)N2C[C@H](C3CC3)[C@@H](N)C2)cc1",
    "cytotoxicity at 10 µM [%]": -7.76
  },
  {
    "molecule": "O=C(c1ccc(F)cc1)N1CCC2(CC1)CC(N1CCOCC1)C2",
    "cytotoxicity at 10 µM [%]": -7.52
  },
  {
    "molecule": "Cc1nc(C)c(CNC(=O)NC2CC(C)(C)OC2(C)C)s1 (stereo not drawn)",
    "cytotoxicity at 10 µM [%]": -0.864
  },
  {
    "molecule": "CCn1nc(C)c(NC(=O)c2cc(NC(=O)C(C)C)n(C)n2)c1C",
    "cytotoxicity at 10 µM [%]": 0.568
  },
  {
    "molecule": "CCn1cc(C(=O)NCc2ccc3c(c2)OCO3)c(C)n1",
    "cytotoxicity at 10 µM [%]": 9.9
  },
  {
    "molecule": "CN1CCN(C(=O)c2cn(Cc3ccccc3)c3ncccc23)CC1",
    "cytotoxicity at 10 µM [%]": -6.63
  },
  {
    "molecule": "O=C(CCCC(=O)NCc1cccc(Br)c1)NCCN1CCCC1",
    "cytotoxicity at 10 µM [%]": -7.47
  },
  {
    "molecule": "Cn1cccc1C(=O)N1CCc2ccc(=O)n(C)c2CC1",
    "cytotoxicity at 10 µM [%]": -0.756
  },
  {
    "molecule": "CC/N=c1\\nc(NCC)nc2n1C(O)(Nc1cc(C)ccc1C)CS2 (stereo not drawn)",
    "cytotoxicity at 10 µM [%]": 10.3
  },
  {
    "molecule": "Cc1nc(CN2CCCC(Nc3ncnc4ccsc34)C2)no1 (stereo not drawn)",
    "cytotoxicity at 10 µM [%]": 42.2
  },
  {
    "molecule": "CN(C)C[C@H]1OC[C@@H]2CCN(C(=O)c3ccco3)C[C@@H]21",
    "cytotoxicity at 10 µM [%]": 4.84
  },
  {
    "molecule": "CN(Cc1cn2c(n1)CN(C1CCOCC1)CC2)Cc1ccco1",
    "cytotoxicity at 10 µM [%]": -64.3
  },
  {
    "molecule": "COc1cccc(-n2cc3[nH]c(=O)[nH]n3c2=O)c1",
    "cytotoxicity at 10 µM [%]": -6.47
  }
]
